Exercise: state measured composite z-score for each of the compounds provided.
- measurement-protocol: compound binding in COS7 lysate, probe aLAP1, primary screen, cell lysate, small-molecule microarray (AID 1124);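 note: lysate comes from COS7 cells expressing LAP1 and is applied at 0.3 µg/mL; score merges spot fluorescence near 667 nm with signal-to-noise over triplicate slides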
- run-conditions: probe aLAP1, fluorescence, higher = more signal
One number for each entry.

Recorded results for 4 compounds are shown here.
CCC(=O)[C@@]1(O)C(=O)N2C(=C3C(=O)OCC[C@@H]31)N(Cc1ccccc1)C(C)=C(C(=O)OC)[C@H]2c1ccccc1	0.137
C[C@@H]1CC[C@H]2C(=O)O[C@@H](COc3ccc(C(C)(C)C)cc3)CN2[C@@H]1c1ccc(Br)cc1	-0.239
O=c1n(-c2ccccc2)c(=O)n2n1CC[C@@H]1C(=NOCc3ccccc3)[C@H]3O[C@H]3[C@@H](O)[C@@H]12	-0.289
CCc1cc2c(nc1CC)CCN(CCC(C)=NOC[C@H]1O[C@H](c3ccccc3)C=C[C@@H]1Oc1ccc(OC)cc1)C2	0.056

Now consider the entry below.
Entry CCOC(=O)NN=C1C[C@@H](O)[C@@H](O)[C@@H]2[C@@H]3C(=O)N(c4cccc(Oc5ccccc5)c4)C(=O)[C@@H]3CC[C@@H]12 ; composite z-score = 0.142

====

- measurement-protocol: binders of probe aHhip on microarray, primary screen, stem cell growth factor project, biochemical, small-molecule microarray, fluorescence 635/667 (AID 1087);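 note: score merges spot fluorescence at 667nm with spot signal to noise ratio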
- run-conditions: higher = more signal
Cut-off -0.06 on composite z-score, inclusive. At or above means Yes; below means No.

# example entries with known answers
O=C(NN=C1C[C@@H](O)[C@@H](O)[C@@H]2[C@@H]3C(=O)N(C4CCCCC4)C(=O)[C@@H]3CC[C@H]12)OCc1ccccc1	No
CCOC(=O)[C@H](Cc1ccccc1)NC(=O)CCC1CC(OC(=O)NCc2ccc3c(c2)OCO3)CC2(CCCC(COC(=O)NCCC(C)C)O2)O1 (some centres undefined)	Yes
Cc1ccc(S(=O)(=O)N[C@H]2COC(=O)CC=C[C@@H](C)COC(=O)CC=C[C@@H]2C)cc1	No
CCc1cc2c(nc1CC)CCN(CCC(C)=NOC[C@H]1O[C@H](c3ccccc3)C=C[C@@H]1Oc1ccc(OC)cc1)C2	Yes
CSCC[C@@H]1NC(=O)CC=C[C@@H](C)COC(=O)[C@@H](C)COC1=O	No

**Q:** Hi, just wondering whether CO[C@@H]1COC(=O)CC=C[C@H](C)[C@H](OC)COC(=O)[C@H](C)NC(=O)CC=C[C@H]1C shows composite z-score of -0.06 or higher.
**A:** Yes

**Q:** Hi, just wondering whether O=c1n(Cc2cc3c(cc2Cl)OCO3)c(=O)n2n1CC[C@@H]1C(=NOCc3ccccc3)[C@H]3O[C@H]3[C@@H](O)[C@@H]12 shows composite z-score of -0.06 or higher.
**A:** No

**Q:** Hi, just wondering whether O=C1C[C@@H](O)[C@@H](O)[C@@H]2[C@@H]3C(=O)N(C[C@@H]4CCCO4)C(=O)[C@@H]3CC[C@H]12 shows composite z-score of -0.06 or higher.
**A:** No

**Q:** Hi, just wondering whether CCOC(=O)NN=C1C[C@@H](O)[C@@H](O)[C@@H]2[C@@H]3C(=O)N(c4cccc(Oc5ccccc5)c4)C(=O)[C@@H]3CC[C@H]12 shows composite z-score of -0.06 or higher.
**A:** No

**Q:** Hi, just wondering whether C#CCCCON=C1C[C@@H](O)[C@@H](O)[C@@H]2[C@@H]3C(=O)N(Cc4ccccc4)C(=O)[C@@H]3CC[C@@H]12 shows composite z-score of -0.06 or higher.
**A:** Yes

**Q:** Hi, just wondering whether CCOC(=O)[C@H](Cc1ccccc1)NC(=O)CCC1CC(OC(=O)NCc2ccc3c(c2)OCO3)CC2(CCCC(COC(=O)NCCc3ccccc3OC)O2)O1 (some centres undefined) shows composite z-score of -0.06 or higher.
**A:** Yes

====

- study-target: Neurogenic locus notch homolog protein 2 (Homo sapiens) (UniProt Q04721)
- Sequence (Q04721 whole entry, looked up): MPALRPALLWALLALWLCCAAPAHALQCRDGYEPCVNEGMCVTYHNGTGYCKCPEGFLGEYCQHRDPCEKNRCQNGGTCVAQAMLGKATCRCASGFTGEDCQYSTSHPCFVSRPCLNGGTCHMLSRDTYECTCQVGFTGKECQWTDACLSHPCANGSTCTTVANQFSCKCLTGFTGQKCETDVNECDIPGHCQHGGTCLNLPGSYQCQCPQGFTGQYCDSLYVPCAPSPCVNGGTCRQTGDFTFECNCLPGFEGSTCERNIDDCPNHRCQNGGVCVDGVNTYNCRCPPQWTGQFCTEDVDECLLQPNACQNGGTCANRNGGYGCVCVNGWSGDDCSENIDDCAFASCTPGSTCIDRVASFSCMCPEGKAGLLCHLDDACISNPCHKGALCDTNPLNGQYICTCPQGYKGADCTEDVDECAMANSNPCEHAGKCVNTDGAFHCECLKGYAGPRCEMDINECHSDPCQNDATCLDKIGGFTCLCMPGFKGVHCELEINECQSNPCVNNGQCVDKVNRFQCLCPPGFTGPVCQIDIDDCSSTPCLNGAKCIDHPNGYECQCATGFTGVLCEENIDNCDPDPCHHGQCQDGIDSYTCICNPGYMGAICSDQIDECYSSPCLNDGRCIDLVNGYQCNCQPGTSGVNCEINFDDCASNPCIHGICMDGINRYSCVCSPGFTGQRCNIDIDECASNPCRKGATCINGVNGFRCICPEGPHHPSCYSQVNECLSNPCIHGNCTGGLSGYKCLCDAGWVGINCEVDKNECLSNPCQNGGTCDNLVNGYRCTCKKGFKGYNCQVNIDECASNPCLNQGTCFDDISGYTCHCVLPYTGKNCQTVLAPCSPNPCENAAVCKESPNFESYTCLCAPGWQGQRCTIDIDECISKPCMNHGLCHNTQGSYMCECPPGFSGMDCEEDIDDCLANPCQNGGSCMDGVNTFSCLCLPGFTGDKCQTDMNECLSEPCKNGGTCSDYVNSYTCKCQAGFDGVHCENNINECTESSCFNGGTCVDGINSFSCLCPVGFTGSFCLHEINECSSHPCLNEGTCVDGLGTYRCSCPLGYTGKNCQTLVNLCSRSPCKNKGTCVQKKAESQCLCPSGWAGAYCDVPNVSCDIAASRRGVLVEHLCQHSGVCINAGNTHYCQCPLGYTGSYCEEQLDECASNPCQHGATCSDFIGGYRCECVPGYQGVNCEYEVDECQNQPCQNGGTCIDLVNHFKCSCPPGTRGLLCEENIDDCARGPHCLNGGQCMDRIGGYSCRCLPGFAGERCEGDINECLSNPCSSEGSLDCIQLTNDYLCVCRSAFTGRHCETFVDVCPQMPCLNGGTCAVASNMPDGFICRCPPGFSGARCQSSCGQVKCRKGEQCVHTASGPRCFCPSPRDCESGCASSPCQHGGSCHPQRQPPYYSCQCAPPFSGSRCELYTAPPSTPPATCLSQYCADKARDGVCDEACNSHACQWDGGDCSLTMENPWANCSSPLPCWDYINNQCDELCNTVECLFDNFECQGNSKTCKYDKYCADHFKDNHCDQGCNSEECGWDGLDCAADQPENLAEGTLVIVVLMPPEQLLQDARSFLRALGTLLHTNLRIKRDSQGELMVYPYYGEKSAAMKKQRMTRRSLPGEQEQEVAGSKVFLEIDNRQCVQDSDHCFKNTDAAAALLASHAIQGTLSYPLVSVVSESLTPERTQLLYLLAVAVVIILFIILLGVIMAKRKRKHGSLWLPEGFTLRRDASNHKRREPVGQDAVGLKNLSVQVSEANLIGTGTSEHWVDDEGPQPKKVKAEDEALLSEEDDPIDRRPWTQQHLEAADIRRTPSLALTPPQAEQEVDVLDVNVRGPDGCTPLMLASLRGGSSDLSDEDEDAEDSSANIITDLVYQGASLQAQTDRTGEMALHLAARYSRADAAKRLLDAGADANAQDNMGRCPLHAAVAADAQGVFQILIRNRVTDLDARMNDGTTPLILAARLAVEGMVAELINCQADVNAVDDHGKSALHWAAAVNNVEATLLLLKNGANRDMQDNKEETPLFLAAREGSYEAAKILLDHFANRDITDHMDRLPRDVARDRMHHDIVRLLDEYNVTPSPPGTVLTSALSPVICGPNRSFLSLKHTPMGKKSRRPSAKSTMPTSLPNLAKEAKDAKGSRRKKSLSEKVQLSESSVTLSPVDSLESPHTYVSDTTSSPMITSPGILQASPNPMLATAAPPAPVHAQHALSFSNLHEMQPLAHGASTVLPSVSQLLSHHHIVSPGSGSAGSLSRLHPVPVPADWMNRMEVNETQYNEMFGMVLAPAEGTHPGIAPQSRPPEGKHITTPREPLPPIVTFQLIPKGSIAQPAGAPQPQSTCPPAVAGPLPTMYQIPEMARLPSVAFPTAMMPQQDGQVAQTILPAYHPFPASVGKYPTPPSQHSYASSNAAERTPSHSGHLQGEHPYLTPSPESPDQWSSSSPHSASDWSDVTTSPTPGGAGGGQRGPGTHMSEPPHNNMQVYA
- measurement-protocol: Notch2 binders on small-molecule microarrays, primary screen, biochemical, small-molecule microarray, 635 nm fluorescence, stem cell growth factors (AID 1073)
- run-conditions: Notch2 binding, higher = more signal
quantity-measured: composite z-score
Give bare numbers.

CCc1cc2c(nc1CC)CCN(CCC(C)=NO[C@H](C)c1cn([C@@H]3COC[C@H]3O)nn1)C2	0.199

Record composite z-score per entry; entries follow.
1. C[C@@H]1NC(=O)[C@@H](C)COC(=O)[C@H](C)NC(=O)[C@@H](C)COC1=O
2. COC(=O)[C@@H]1CC[C@H](C)[C@@H](c2ccc(C)cc2)N1C(=O)c1ccc(C=NO[C@@H](C)c2cn([C@H](CO)Cc3ccccc3)nn2)cc1

**A:**
[0.51, 1.11]

Record composite z-score per entry; entries follow.
1. C=CC[C@@H]1C=C[C@H](ON=C(C)CCC(=O)OC[C@H]2O[C@H](c3ccccc3)C=C[C@@H]2Oc2ccc(OC)cc2)[C@@H](CO)O1
2. COC(=O)CC=C[C@H](C)[C@@H](OCc1cccc(Br)c1)[C@@H](C)[C@H](OC)C1CCCCC1

**A:**
-1.06
-0.723

Record composite z-score per entry; entries follow.
1. COC(=O)CC=C[C@@H](C)[C@@H](C=NOCC[C@@H]1C=C[C@H](OC(C)=O)[C@@H](COC(C)=O)O1)OC
2. C#CCCCON=C1C[C@@H](O)[C@@H](O)[C@@H]2[C@@H]3C(=O)N(Cc4ccccc4)C(=O)[C@@H]3CC[C@@H]12

**A:**
0.193
0.181

====

- measurement-protocol: P. aeruginosa biofilm formation inhibitors, primary screen, PAO1 strain, BacTiter-Glo luminescence, LB-PBS (AID 1144)
- run-conditions: 12 h, higher = more signal
Exercise: state measured z-score for each of the compounds provided.
One number for each entry.

CC(CCN1CCCc2nc(C)c(C)cc21)=NOC(C)CN1CCCCc2nc(C)c(C)cc21 (stereo not given)	-0.624
CCOC(=O)[C@H](CC(C)C)NC(=O)CCC1CC(OC(=O)NCc2cccc3ccccc23)CC2(CCCC(COC(=O)NCCc3ccc(Cl)cc3)O2)O1 (stereo not given in full)	-1.39
CC[C@@H](c1ccccc1)n1c(=O)n2n(c1=O)[C@H]1[C@H](O)[C@@H]3O[C@@H]3C(=NOC[C@@H](O)COCc3ccco3)[C@H]1CC2	0.232
C=COC[C@@H]1CN2[C@@H](CC[C@@H](C)[C@@H]2c2ccc(Br)cc2)C(=O)O1	-1.06
Cc1cc2c(nc1C)CCCCN2CC(C)ON=C[C@@H](C)[C@H](OCc1ccccc1)C(C)C (stereo not given in full)	0.207
CCN1C(=O)[C@H]2[C@H]3[C@H](O)[C@H](O)CC(=NOCC(C)C)[C@@H]3CC[C@H]2C1=O	0.258
COc1ccc(O[C@H]2C=C[C@@H](c3ccccc3)O[C@@H]2COC(=O)CCC(C)=NOC[C@@H](O)[C@H]2O[C@@H]3OC(C)(C)O[C@@H]3[C@H]2O)cc1	-0.108
CC(CCN1CCc2nc(-c3ccccc3)c(-c3ccccc3)cc2C1)=NOC[C@@H](O)COCc1ccco1	-0.255

Record z-score per entry; entries follow.
1. COc1ccc(O[C@H]2C=C[C@@H](c3ccccc3)O[C@@H]2CON=C2[C@H]3CCn4c(=O)n(-c5ccccc5)c(=O)n4[C@H]3[C@H](O)[C@@H]3O[C@H]23)cc1
2. Cc1ccc(S(=O)(=O)NC(CCc2ccccc2)CC(=O)C(C)(C)C)cc1 (stereo not given)
3. CC(=O)OC[C@H]1OC(ON=CC[C@@H]2C=C[C@H](OC(C)=O)[C@@H](COC(C)=O)O2)[C@H](OC(C)=O)[C@@H](OC(C)=O)[C@@H]1OC(C)=O (stereo not given in full)
4. C#CCCCON=C1[C@H]2CCn3c(=O)n(C)c(=O)n3[C@H]2[C@H](O)[C@@H]2O[C@H]12
5. CO[C@H]1COC(=O)CC=C[C@H](C)[C@@H](OC)COC(=O)[C@@H](C)NC(=O)CC=C[C@@H]1C

**A:**
1.92
1.1
-0.133
0.806
-1.15

Record z-score per entry; entries follow.
1. O=C1[C@H]2[C@H]3[C@H](O)[C@H](O)CC(=NOCc4ccccc4)[C@@H]3CC[C@H]2C(=O)N1Cc1ccc2c(c1)OCO2
2. CC(CCN1CCCc2nc(C)c(C)cc21)=NO[C@@H](C)c1cc(-c2c(C)cc(C)cc2C)no1

**A:**
[-0.312, -0.501]

====

- study-target: Torsin-1A (Homo sapiens) (UniProt O14656)
- Sequence (O14656 whole entry, looked up): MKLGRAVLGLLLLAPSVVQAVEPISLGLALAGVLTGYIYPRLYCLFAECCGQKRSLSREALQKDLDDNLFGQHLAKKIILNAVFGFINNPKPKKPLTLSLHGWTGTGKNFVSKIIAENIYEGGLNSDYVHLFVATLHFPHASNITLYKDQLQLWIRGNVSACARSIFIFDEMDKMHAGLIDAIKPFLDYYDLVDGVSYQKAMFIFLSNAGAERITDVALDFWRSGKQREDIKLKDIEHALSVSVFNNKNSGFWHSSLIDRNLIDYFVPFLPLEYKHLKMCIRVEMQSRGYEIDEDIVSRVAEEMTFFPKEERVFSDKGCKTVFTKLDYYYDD
- measurement-protocol: torsin A binders from cell lysate, primary screen, small-molecule microarray, wild-type, 635/667 nm (AID 1149)
- run-conditions: COS7 hTOR1A-WT lysate, 635 nm fluorescence, higher = more signal
Exercise: state measured composite z-score for each of the compounds provided.
Answers are plain numbers.

Record composite z-score per entry; entries follow.
1. COC(=O)CC=C[C@@H](C)[C@@H](C=NO[C@@H](C)c1cc(-c2c(C)cc(C)cc2C)no1)NS(=O)(=O)c1ccc(C)cc1
2. CC(C)=NO[C@H](C)c1cn([C@H](CO)Cc2ccccc2)nn1
3. CCOC(=O)[C@H](Cc1ccccc1)NC(=O)CCC1CC(OC(=O)NCc2cccc3ccccc23)CC2(CCCC(COC(=O)NCc3cccc(C(F)(F)F)c3)O2)O1 (stereo not given in full)
4. CC(C)CON=C1C[C@@H](O)[C@@H](O)[C@@H]2[C@@H]3C(=O)N(C(C)(C)C)C(=O)[C@@H]3CC[C@H]12
5. CON=CC[C@@H]1C=C[C@H](OC(C)=O)[C@@H](COC(C)=O)O1

**A:**
-1.05
-0.232
-0.347
0.324
0.611

Record composite z-score per entry; entries follow.
1. O=C1C=C[C@@H](O)[C@@H]2[C@@H]3C(=O)N(c4ccc(F)cc4F)C(=O)[C@@H]3CC[C@@H]12
2. Cc1cc2c(nc1C)CCCN2CC(O)CN1CCCc2nc(C)c(C)cc21
3. CCCNC(=O)OC[C@H]1O[C@H](CCON=C(C)CCC(=O)OC[C@H]2O[C@H](c3ccccc3)C=C[C@@H]2Oc2ccc(OC)cc2)C=C[C@@H]1Oc1ccc(OC)cc1
4. O=C(C=Cc1ccc2c(c1)OCO2)c1ccc(F)cc1

**A:**
1.15
0.482
-0.694
0.245
